Target: T1, human TPBG antigen immobilized on a CM5 chip (human, UniProt Q13641 32-355, limits assumed)
T1 sequence (looked up): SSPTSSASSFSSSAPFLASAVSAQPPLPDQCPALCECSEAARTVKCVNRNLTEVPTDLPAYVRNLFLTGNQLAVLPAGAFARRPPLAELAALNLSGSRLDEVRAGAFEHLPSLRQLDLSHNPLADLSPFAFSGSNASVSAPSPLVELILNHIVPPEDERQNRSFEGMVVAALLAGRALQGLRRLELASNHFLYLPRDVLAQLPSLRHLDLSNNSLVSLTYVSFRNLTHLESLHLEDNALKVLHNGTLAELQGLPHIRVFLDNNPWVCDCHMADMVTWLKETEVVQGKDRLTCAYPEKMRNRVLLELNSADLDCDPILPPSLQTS
Experiment: SPR (Biacore), human TPBG antigen immobilized on CM5 chip
Entries annotated with measured pKd
Just so you know, pKd here is -log10 of the concentration in molar units; reply with that number alone.

# binder, measuredEndpoint, quantitativeResult
measured = [
    ("Humanized antibody 28D4-3 (antibody, V domains shown, also called h28D4-3) VH: EVQLVESGGGLVKPGGSLRLSCAASGFTFSNYVMSWIRQAPGKGLEWVAEISTGGSHTYYSDTVTGRFTISRDNAKKSLYLQMNSLRAEDTAVYYCIMFYYGSSYSMDYWGQGTTVTVSS VL: DIQMTQSPSSLSASVGDRVTITCRASQDIRNYLNWYQQKPGKAPKLLIYHTSRLHSGVPSRFSGSGSGTDFTFTISSLQPEDIATYYCQQGDTLPLTFGQGTRLEIK", "pKd", 10.39),
]

Alright, here's another binder for you.
So what does the record say about pKd for Humanized antibody 28D4-7 (antibody, V domains shown, also called h28D4-7) VH: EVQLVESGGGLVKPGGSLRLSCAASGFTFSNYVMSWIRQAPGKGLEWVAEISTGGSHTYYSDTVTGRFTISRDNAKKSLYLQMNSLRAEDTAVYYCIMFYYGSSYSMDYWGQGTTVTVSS VL: DIQMTQSPSSLSASVGDRVTITCRASQDIRNYLNWYQQKPGKAPKLLIYHTSRLHSGVPSRFSGSGSGTDYTFTISSLQPEDIATYYCQQGDTLPLTFGQGTRLEIK ?
10.59
